Data provenance is patent EP2821071A1.

tested on: HCC1937; assay: MTT cell viability assay; type: cell-based; conditions: Homo sapiens, HCC1937 cell line
pIC50: −log10 of the molar value.
measuredProperty: pIC50

1) OCc1ccc(-c2nn(Cc3ccccc3)c3ccccc23)o1	3.60

---

system: MDA-MB-468; experiment: MTT cell viability assay; assay type: cell-based; conditions: Homo sapiens, MDA-MB-468 cell line
measuredProperty: IC50 (µM)

1. OCc1ccc(-c2nn(Cc3ccccc3)c3ccccc23)o1	49
